Assayed system: hGLP-1R (Homo sapiens)
Sequence (P43220 24-463): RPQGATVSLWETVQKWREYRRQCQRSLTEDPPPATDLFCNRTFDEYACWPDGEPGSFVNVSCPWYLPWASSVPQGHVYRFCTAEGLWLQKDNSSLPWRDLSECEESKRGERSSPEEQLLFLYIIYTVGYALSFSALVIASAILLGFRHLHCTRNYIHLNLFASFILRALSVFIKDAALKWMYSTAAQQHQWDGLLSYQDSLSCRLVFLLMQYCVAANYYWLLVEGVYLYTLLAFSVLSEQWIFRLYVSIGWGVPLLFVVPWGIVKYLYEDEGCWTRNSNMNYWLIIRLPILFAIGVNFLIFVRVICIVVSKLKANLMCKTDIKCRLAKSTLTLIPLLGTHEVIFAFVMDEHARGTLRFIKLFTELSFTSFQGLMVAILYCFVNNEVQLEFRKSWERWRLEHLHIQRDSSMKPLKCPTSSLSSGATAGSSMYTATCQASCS
Assay procedure: Functional cAMP activity in the presence of 1% HSA
Assay type: cell-based
Condition description: read-out: cAMP Rel EC50, hGLP-1R
Starred links: 1 amine or outer side, 2 acyl side, 3 side chain; linkers in the order of their positions; H or OH if unused. Non-standard residues stand in square brackets, D forms with d. Groups on a side chain read outwards from the residue. No end group written: not given here. *: point of attachment. C20 diacid = O=C(O)CCCCCCCCCCCCCCCCCCC(=O)*; C18 diacid = O=C(O)CCCCCCCCCCCCCCCCC(=O)*; αMePhe(2-F) = C[C@](N)(Cc1ccccc1F)C(=O)O; γGlu = O=C(O)[C@H](CCC(=O)[*:2])N[*:1]; αMe4Pal = C[C@](N)(Cc1ccncc1)C(=O)O; αMeY = C[C@](N)(Cc1ccc(O)cc1)C(=O)O; αMeF = C[C@](N)(Cc1ccccc1)C(=O)O; 4Pal = N[C@@H](Cc1ccncc1)C(=O)O; αMeL = CC(C)C[C@](C)(N)C(=O)O; αMeS = C[C@](N)(CO)C(=O)O; Orn = NCCC[C@H](N)C(=O)O; AEEA = NCCOCCOCC(=O)O; Aib = CC(C)(N)C(=O)O
Please go through the items and note down their pEC50.
API: returns pEC50 as number; meaning -log10 of concentration in mol/L.

Look up and report measured pEC50 for this entry: H-Y[Aib]QGTFTSD[4Pal]SK[αMeL]LDKK([AEEA-γGlu-C18 diacid])AQ[Aib]AFIEYLIE[Aib]GESSGAPPPSGS-NH2 [Example 280]
6.77

Look up and report measured pEC50 for this entry: Y[Aib]QGTFTSD[4Pal]SQ[αMeL]LD[Orn]K([dE-γGlu-C18 diacid])AQ[αMe4Pal]AFIEYLIA[Aib]GPSSGEPPPSGSEE-NH2 [Example 1101]
6.61

Look up and report measured pEC50 for this entry: H-Y[Aib]QGTFTSDFSK[αMeL]LDKK([AEEA-γGlu-C18 diacid])AQ[Aib]AFIE[αMe4Pal]LIE[Aib]GPSSGAPPPSGS-NH2 [Example 912]
7.22

Look up and report measured pEC50 for this entry: Y[Aib]QGTFTSDFS[Orn][αMeL]LDKK([AEEA-AEEA-γGlu-C18 diacid])AQ[Aib]AFIEYLLE[dA]GPSSG[4Pal]PPPSGS-NH2 [Example 254]
6.58

Look up and report measured pEC50 for this entry: H-Y[Aib]QGTFTSDFSK[αMeL]LDKK([AEEA-γGlu-C20 diacid])AQ[Aib]AFIEYLLEGGPSSGAPPP[γGlu]GE-NH2 [Example 53]
5.99

Look up and report measured pEC50 for this entry: H-Y[Aib]QGTFTSD[4Pal]S[Orn][αMeL]LDKK([γGlu-γGlu-C18 diacid])AQ[αMe4Pal]AFIEYLIAGGESSGAPPPSGSEE-NH2 [Example 964]
6.57

Look up and report measured pEC50 for this entry: H-Y[Aib]QGTFTSD[4Pal]SK[αMeL]LDKK([AEEA-γGlu-C18 diacid])AQ[Aib]AFIEYLIE[Aib]GPSSGAPPPSGS-NH2 [Example 801]
6.88

Look up and report measured pEC50 for this entry: H-Y[Aib]QGTFTSDFSK[αMeL]LDKK([AEEA-AEEA-γGlu-C20 diacid])AQ[Aib]AFIEYLLAGGPSSGEPPPSSE-NH2 [Example 5]
6.17

Look up and report measured pEC50 for this entry: H-Y[Aib]QGT[αMeF]TSD[4Pal][αMeS]I[αMeL]LD[Orn]K([AEEA-γGlu-C18 diacid])AQ[αMe4Pal]EFI[dE][αMeY]LIEGGPSSGEPPPSGSE-NH2 [Example 1167]
7.05

Look up and report measured pEC50 for this entry: H-Y[Aib]QGT[αMePhe(2-F)]TSDYSILLDKK([AEEA-γGlu-C18 diacid])AQ[Aib]AFIEYLEEGGPSSGAPPPEEG-NH2 [Example 399]
7.37

Look up and report measured pEC50 for this entry: H-Y[Aib]QGTFTSD[4Pal][αMeS]Q[αMeL]LD[Orn]K([dE-γGlu-C18 diacid])AQ[αMe4Pal]QFIE[αMeY]LIA[Aib]GPSSGEPPPSGGGE-NH2 [Example 1182]
7.09

Look up and report measured pEC50 for this entry: H-Y[Aib]QGTFTSD[4Pal]SQ[αMeL]LD[Orn]K([γGlu-γGlu-C18 diacid])AQ[αMe4Pal]QFIEYLIAGGPSSGAPPPSGSEE-NH2 [Example 1005]
6.77

Look up and report measured pEC50 for this entry: H-Y[Aib]QGT[αMePhe(2-F)]TSD[4Pal][αMeS]ILLD[Orn]K([γGlu-γGlu-C18 diacid])AQ[Aib][Orn]FI[dE]YLIEGGPSSGEPPPEGTEEE-NH2 [Example 577]
7.09

Look up and report measured pEC50 for this entry: H-Y[Aib]QGT[αMeF]TSD[4Pal][αMeS]I[αMeL]LD[Orn]K([γGlu-γGlu-C18 diacid])AQ[αMe4Pal]EFI[dE][αMeY]LIEGGPSSGEPPPSGSE-NH2 [Example 1173]
7.23

Look up and report measured pEC50 for this entry: H-Y[Aib]QGT[αMePhe(2-F)]TSD[4Pal][αMeS]I[αMeL]LD[Orn]K([AEEA-γGlu-C18 diacid])AQ[Aib][Orn]FI[dE]YLIEGGPSSGEPPPSGTE-NH2 [Example 501]
7.42

Look up and report measured pEC50 for this entry: H-Y[Aib]QGT[αMePhe(2-F)]TSD[4Pal][αMeS]I[αMeL]LD[Orn]K([γGlu-γGlu-C18 diacid])AQ[Aib][Orn]FI[dE][αMeY]LQEGGPSSGEPPPEGSEE-NH2 [Example 585]
7.41

Look up and report measured pEC50 for this entry: H-Y[Aib]QGT[αMePhe(2-F)]TSDYSKLLDKIAQK([AEEA-γGlu-C20 diacid])AFIEYLIEGGPSSGEPPPSEG-NH2 [Example 304]
6.76

Look up and report measured pEC50 for this entry: H-Y[Aib]QGT[αMePhe(2-F)]TSD[4Pal]SI[αMeL]LD[Orn]K([AEEA-γGlu-C18 diacid])AQ[αMe4Pal][Orn]FI[dE][αMeY]LIEGGPSSGEPPPESE-NH2 [Example 677]
7.68

Look up and report measured pEC50 for this entry: H-Y[Aib]QGTFTSD[4Pal][αMeS]Q[αMeL]LD[Orn]K([dE-γGlu-C18 diacid])AQ[αMe4Pal]QFIQ[αMeY]LIAGGPSSGEPPPSGGGE-NH2 [Example 1133]
7.32

Look up and report measured pEC50 for this entry: H-Y[Aib]QGTFTSDFSK[αMeL]LDKK([AEEA-γGlu-C18 diacid])AQ[Aib]AFIEYLIE[Aib]GESSGAPPPSGS-NH2 [Example 216]
7.04

Look up and report measured pEC50 for this entry: H-Y[Aib]QGTFTSD[4Pal]SR[αMeL]LDKK([AEEA-γGlu-C18 diacid])AQ[Aib]AFIEYLIE[Aib]GPSSGAPPPSGS-NH2 [Example 802]
6.82

Look up and report measured pEC50 for this entry: H-Y[Aib]QGTFTSD[4Pal]S[Orn][αMeL]LDKK([AEEA-γGlu-C18 diacid])AQ[Aib]AFIEYLLE[dA]GPSS[Aib]APPPSGT-NH2 [Example 275]
6.16

* * *

Assayed system: hGLP-1R (Homo sapiens)
Assay procedure: Functional cAMP activation in the presence of 0.1% casein (no HSA);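 note: intracellular cAMP rise after 30 min at 37 °C read by HTRF, normalized between buffer only (0%) and maximal control ligand (100%), four-parameter variable-slope fit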
Type: cell-based
Condition description: read-out: Relative cAMP EC50, hGLP-1R
Starred links: 1 amine or outer side, 2 acyl side, 3 side chain; linkers in the order of their positions; H or OH if unused. Non-standard residues stand in square brackets, D forms with d. Groups on a side chain read outwards from the residue. No end group written: not given here. *: point of attachment. C18 diacid = O=C(O)CCCCCCCCCCCCCCCCC(=O)*; αMePhe(2-F) = C[C@](N)(Cc1ccccc1F)C(=O)O; γGlu = O=C(O)[C@H](CCC(=O)[*:2])N[*:1]; αMe4Pal = C[C@](N)(Cc1ccncc1)C(=O)O; αMeY = C[C@](N)(Cc1ccc(O)cc1)C(=O)O; 4Pal = N[C@@H](Cc1ccncc1)C(=O)O; αMeL = CC(C)C[C@](C)(N)C(=O)O; αMeS = C[C@](N)(CO)C(=O)O; Orn = NCCC[C@H](N)C(=O)O; AEEA = NCCOCCOCC(=O)O; Aib = CC(C)(N)C(=O)O
Please go through the items and note down their pEC50.
API: returns pEC50 as number; meaning -log10 of concentration in mol/L.

Look up and report measured pEC50 for this entry: H-Y[Aib]QGT[αMePhe(2-F)]TSD[4Pal][αMeS]I[αMeL]LD[Orn]K([AEEA-γGlu-C18 diacid])AQ[αMe4Pal]EFI[dE][αMeY]LVEGGPSSGEPPPSGSEE-NH2 [Example 736]
9.31

Look up and report measured pEC50 for this entry: H-Y[Aib]QGT[αMePhe(2-F)]TSD[4Pal]SILLDKK([γGlu-γGlu-C18 diacid])AQ[Aib]AFIEYLEEGGPSSGAPPPSGGGE-NH2 [Example 619]
9.00

Look up and report measured pEC50 for this entry: Y[Aib]QGT[αMePhe(2-F)]TSD[4Pal][αMeS]I[αMeL]LD[Orn]K([AEEA-γGlu-C18 diacid])AQ[αMe4Pal]EFI[dE][αMeY]LVEGGPSSGEPPPSGGGE-NH2 [Example 735]
9.41

Look up and report measured pEC50 for this entry: Y[Aib]QGT[αMePhe(2-F)]TSD[4Pal]SI[αMeL]LD[Orn]K([AEEA-γGlu-C18 diacid])AQ[αMe4Pal][Orn]FI[dE][αMeY]LIEGGPSSGEPPPEGTE-NH2 [Example 679]
9.59

Look up and report measured pEC50 for this entry: H-Y[Aib]QGT[αMePhe(2-F)]TSD[4Pal]SI[αMeL]LD[Orn]K([γGlu-γGlu-C18 diacid])AQ[αMe4Pal][Orn]FI[dE][αMeY]LIEGGPSSGEPPPEGTE-NH2 [Example 687]
9.56

Where do the numbers come from? From patent US20240270821A1.
